Test system: Bacillus cereus ATCC 10876
Assay: Broth microdilution MIC/MBC
Format: cell-based
parameter: MBC/MIC

Prompt: Recorded MBC/MIC for CCCOc1ccc(/C=N/NC(=O)c2ccc(O)cc2O)cc1 [Compound 6] with Bacillus cereus ATCC 10876, please?
Completion: > 1

###

System: Escherichia coli ATCC 25922
We begin with a simple list: items and their reported MIC.

Look over these answered cases.
Prompt: Could you tell me which MIC is on file for Cc1cccc(/C=N/NC(=O)c2ccc(O)cc2O)c1 [Compound 2] ?
Completion: 1000 µg/mL

Prompt: Could you tell me which MIC is on file for O=C(N/N=C/c1ccccc1Cl)c1ccc(O)cc1O [Compound 22] ?
Completion: > 1000 µg/mL

Prompt: Could you tell me which MIC is on file for CCCCOc1ccc(/C=N/NC(=O)c2ccc(O)cc2O)cc1 [Compound 7] ?
Completion: > 1000 µg/mL

Prompt: Could you tell me which MIC is on file for O=C(N/N=C/c1cc(Br)c(O)c(Br)c1)c1ccc(O)cc1O [Compound 17] ?
Completion: 1000 µg/mL

Prompt: Could you tell me which MIC is on file for O=C(N/N=C/c1cc(I)cc(I)c1O)c1ccc(O)cc1O [Compound 18] ?
Completion: 500 µg/mL

Prompt: Could you tell me which MIC is on file for O=C(N/N=C/c1cccc([N+](=O)[O-])c1)c1ccc(O)cc1O [Compound 20] ?
Completion: > 1000 µg/mL

Prompt: Could you tell me which MIC is on file for COc1ccc(/C=N/NC(=O)c2ccc(O)cc2O)cc1Cl [Compound 9] ?
Completion: > 1000 µg/mL

Prompt: Could you tell me which MIC is on file for O=C(N/N=C/c1ccc(O)c(Br)c1)c1ccc(O)cc1O [Compound 11] ?
Completion: > 1000 µg/mL

---
Prompt: Could you tell me which MIC is on file for O=C(N/N=C/c1ccccc1F)c1ccc(O)cc1O [Compound 24] ?
Completion: > 1000 µg/mL

Prompt: Could you tell me which MIC is on file for O=C(N/N=C/c1ccccc1Br)c1ccc(O)cc1O [Compound 23] ?
Completion: > 1000 µg/mL

###

System: Micrococcus luteus ATCC 10240
Assay: Broth microdilution MIC/MBC
Format: cell-based
Conditions: ATCC10240
parameter: MBC

Look over these answered cases.
Prompt: Could you tell me which MBC is on file for "CCOc1cc(/C=N/NC(=O)c2ccc(O)cc2O)ccc1OC" ?
Completion: > 1000 µg/mL

Prompt: Could you tell me which MBC is on file for "CCOc1ccc(/C=N/NC(=O)c2ccc(O)cc2O)cc1" ?
Completion: > 1000 µg/mL

Prompt: Could you tell me which MBC is on file for "COc1ccc(/C=N/NC(=O)c2ccc(O)cc2O)cc1Br" ?
Completion: > 1000 µg/mL

Prompt: Could you tell me which MBC is on file for "CCCCOc1ccc(/C=N/NC(=O)c2ccc(O)cc2O)cc1" ?
Completion: > 1000 µg/mL

Prompt: Could you tell me which MBC is on file for "O=C(N/N=C/c1ccccc1F)c1ccc(O)cc1O" ?
Completion: > 1000 µg/mL

Prompt: Could you tell me which MBC is on file for "Cc1ccccc1/C=N/NC(=O)c1ccc(O)cc1O" ?
Completion: > 1000 µg/mL

---
Prompt: Could you tell me which MBC is on file for "O=C(N/N=C/c1ccc([N+](=O)[O-])cc1)c1ccc(O)cc1O" ?
Completion: > 1000 µg/mL

Prompt: Could you tell me which MBC is on file for "O=C(N/N=C/c1ccccc1[N+](=O)[O-])c1ccc(O)cc1O" ?
Completion: > 1000 µg/mL

Prompt: Could you tell me which MBC is on file for O=C1CN(/N=C/c2ccc([N+](=O)[O-])o2)C(=O)N1 [NIT, nitrofurantoin, reference compound] ?
Completion: 62.5 µg/mL

Prompt: Could you tell me which MBC is on file for "CCCc1ccc(/C=N/NC(=O)c2ccc(O)cc2O)cc1" ?
Completion: > 1000 µg/mL

Prompt: Could you tell me which MBC is on file for "Cc1cccc(/C=N/NC(=O)c2ccc(O)cc2O)c1" ?
Completion: 250 µg/mL

Prompt: Could you tell me which MBC is on file for "O=C(N/N=C/c1cc(Br)c(O)c(Br)c1)c1ccc(O)cc1O" ?
Completion: > 1000 µg/mL

Prompt: Could you tell me which MBC is on file for "CCCOc1ccc(/C=N/NC(=O)c2ccc(O)cc2O)cc1" ?
Completion: > 1000 µg/mL

Prompt: Could you tell me which MBC is on file for "Cc1ccc(/C=N/NC(=O)c2ccc(O)cc2O)cc1" ?
Completion: > 1000 µg/mL

Prompt: Could you tell me which MBC is on file for "O=C(N/N=C/c1ccc(O)c(Br)c1)c1ccc(O)cc1O" ?
Completion: > 1000 µg/mL
